Target: CYP1A2 (Homo sapiens, UniProt P05177)
Sequence (P05177 1-516): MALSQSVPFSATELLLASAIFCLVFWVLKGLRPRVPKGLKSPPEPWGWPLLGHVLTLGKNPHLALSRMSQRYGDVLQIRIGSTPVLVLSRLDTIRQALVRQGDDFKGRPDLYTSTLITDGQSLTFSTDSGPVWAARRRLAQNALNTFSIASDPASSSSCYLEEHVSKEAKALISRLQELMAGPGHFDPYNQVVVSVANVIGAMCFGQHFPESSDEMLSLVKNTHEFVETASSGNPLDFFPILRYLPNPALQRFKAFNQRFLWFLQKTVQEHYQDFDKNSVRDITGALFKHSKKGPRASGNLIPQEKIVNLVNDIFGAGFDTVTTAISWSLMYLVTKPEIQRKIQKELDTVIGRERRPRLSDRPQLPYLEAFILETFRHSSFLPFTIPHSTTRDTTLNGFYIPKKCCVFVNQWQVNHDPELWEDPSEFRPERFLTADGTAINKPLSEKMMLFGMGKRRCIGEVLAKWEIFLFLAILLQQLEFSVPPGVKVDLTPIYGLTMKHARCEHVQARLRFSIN
RESULT TYPE: IC50

Query: Can you share its IC50? I mean this compound: CN(C)C(=O)C(=NOCC(=O)O)c1nc2ccccc2n([C@H]2C[C@H]3CCC[C@@H](C2)N3C2CC3CCCC(C3)C2)c1=O (stereo partly drawn) [Compound 51]
Result: > 20 µM

Query: Can you share its IC50? I mean this compound: O=C(O)CCC(=NOCCO)c1nc2ccccc2n([C@H]2C[C@H]3CCC[C@@H](C2)N3C2CC3CCCC(C3)C2)c1=O (stereo partly drawn) [Compound 3]
Result: > 20 µM

Query: Can you share its IC50? I mean this compound: COCCO/N=C(\CCC(=O)O)c1nc2ccccc2n([C@H]2C[C@H]3CCC[C@@H](C2)N3C2CC3CCCCC(C3)C2)c1=O (stereo partly drawn) [Compound 56]
Result: > 20 µM
